Taken from patent US5405861A.

- Tested on: Candida albicans (IFO 0538)
- assay-remarks: Antifungal activity against Candida albicans, paper disc growth inhibition zone (Tables 5 and 6)
- Type: cell-based
- settings: 48 h, pH 7, B medium (yeast nitrogen base agar, pH 7.0), 28° C., 2 days incubation; read-out: Inhibition zone diameter
readout-label: zone of inhibition at 1000 µg/mL (mm)
Output spec: scalar in mm, unitless text.

C[C@@H](SCc1nccn1C1CC1)[C@](O)(Cn1cncn1)c1ccc(F)cc1F (relative stereo) [Compound 55] | 30
CC(C)C(=O)S[C@H](C)[C@](O)(Cn1cncn1)c1ccc(F)cc1F [Compound 62] | 45
C[C@@H](SCc1csc(C2CC2)n1)[C@](O)(Cn1cncn1)c1ccc(F)cc1F [Compound 123] | 35

Shifting focus to the compound that follows.
Qu. Value lookup for zone of inhibition at 1000 µg/mL; key = Cc1nc(CS[C@H](C)[C@](O)(Cn2cncn2)c2ccc(F)cc2F)cs1 (relative stereo) [Compound 52]
Ans. 35
